target: Alpha-2C adrenergic receptor (Homo sapiens, UniProt P18825)
Sequence (P18825 whole entry): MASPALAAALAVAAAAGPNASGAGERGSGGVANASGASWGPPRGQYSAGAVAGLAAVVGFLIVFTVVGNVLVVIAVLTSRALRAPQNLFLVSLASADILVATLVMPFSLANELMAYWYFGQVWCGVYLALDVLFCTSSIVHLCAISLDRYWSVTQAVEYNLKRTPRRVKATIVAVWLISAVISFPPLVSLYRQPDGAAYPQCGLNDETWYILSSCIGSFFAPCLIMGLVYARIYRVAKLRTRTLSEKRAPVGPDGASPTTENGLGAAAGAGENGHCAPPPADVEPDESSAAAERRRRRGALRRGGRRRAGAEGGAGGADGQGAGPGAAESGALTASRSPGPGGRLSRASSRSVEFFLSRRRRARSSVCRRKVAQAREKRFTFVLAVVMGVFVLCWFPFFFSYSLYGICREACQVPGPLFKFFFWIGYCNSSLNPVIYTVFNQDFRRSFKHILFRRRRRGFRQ
protocol_summary: DRUGMATRIX: Adrenergic Alpha-2C radioligand binding (ligand: [3H] MK-912)
Assay type: cell membranes, Sf9, Membrane
test_conditions: read-out: Ki
So basically: is Ki under 4000 nM? Then true (1). Not under? Then false (0).

molecule	assigned_category
CCc1c2c(nc3ccc(OC(=O)N4CCC(N5CCCCC5)CC4)cc13)-c1cc3c(c(=O)n1C2)COC(=O)[C@]3(O)CC	true (1)
C[C@]12CC[C@@H]3c4ccc(OC(=O)c5ccccc5)cc4CC[C@H]3[C@@H]1CC[C@@H]2O [ESTRADIOL BENZOATE]	true (1)
S=C=Nc1cccc2ccccc12 [1-NAPHTHYLISOTHIOCYANATE]	false (0)
CN(C)c1ccc(C(=C2C=CC(=[N+](C)C)C=C2)c2ccc(N(C)C)cc2)cc1.[Cl-]	true (1)
CN1CCC(=C2c3ccccc3C=Cc3ccccc32)CC1	true (1)

---

protocol_summary: DRUGMATRIX: Serotonin (5-Hydroxytryptamine) 5-HT3 radioligand binding (ligand: [3H] GR-65630)
Format: cell membranes, Membrane
test_conditions: hek293; Not Active = under 50% inhibition at 10 µM
property_name: Ki

compound	property_name	measurement
CCCCOc1ccc(OCCCN2CCOCC2)cc1 [PRAMOXINE]	Ki	Not Active
COc1ccc2c(c1)c(CC(=O)O)c(C)n2C(=O)c1ccc(Cl)cc1 [INDOMETHACIN]	Ki	Not Active
COc1ccc2c(c1)[C@]13CCCC[C@@H]1[C@H](C2)N(C)CC3 [DEXTROMETHORPHAN]	Ki	Not Active

---

target: Cholecystokinin receptor type A (Homo sapiens, UniProt P32238); also: in other assays of this panel Not Active means under 50% inhibition at 10 µM
Sequence (P32238 whole entry): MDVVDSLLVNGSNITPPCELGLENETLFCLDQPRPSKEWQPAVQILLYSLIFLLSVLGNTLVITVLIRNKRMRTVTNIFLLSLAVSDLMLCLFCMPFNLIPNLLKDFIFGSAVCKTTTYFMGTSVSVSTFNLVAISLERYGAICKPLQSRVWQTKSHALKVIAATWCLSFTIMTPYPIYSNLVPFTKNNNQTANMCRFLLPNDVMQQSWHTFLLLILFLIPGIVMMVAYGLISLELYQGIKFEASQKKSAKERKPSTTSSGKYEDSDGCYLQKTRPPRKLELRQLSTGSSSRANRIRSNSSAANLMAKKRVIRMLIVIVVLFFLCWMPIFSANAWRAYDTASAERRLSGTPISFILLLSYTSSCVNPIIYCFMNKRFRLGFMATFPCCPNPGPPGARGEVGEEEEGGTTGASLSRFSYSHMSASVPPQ
Assay type: cell membranes, Membrane
test_conditions: 1321-n1

compound	IC50
O=C1CC2(CCCC2)CC(=O)N1CCCCN1CCN(c2ncccn2)CC1	Not Active
CNC(=C[N+](=O)[O-])NCCSCc1ccc(CN(C)C)o1	Not Active
O=C(O)Cc1ccccc1Nc1c(Cl)cccc1Cl	Not Active
N=C(Nc1ccccc1)Nc1ccccc1	Not Active
C/C=C/C[C@@H](C)[C@@H](O)[C@H]1C(=O)N[C@@H](CC)C(=O)N(C)CC(=O)N(C)[C@@H](CC(C)C)C(=O)N[C@@H](C(C)C)C(=O)N(C)[C@@H](CC(C)C)C(=O)N[C@@H](C)C(=O)N[C@H](C)C(=O)N(C)[C@@H](CC(C)C)C(=O)N(C)[C@@H](CC(C)C)C(=O)N(C)[C@@H](C(C)C)C(=O)N1C	Not Active
CCOC(=O)[C@H](CCc1ccccc1)N[C@H]1CCc2ccccc2N(CC(=O)O)C1=O	Not Active
C#C[C@]1(OC(C)=O)CC[C@H]2[C@@H]3CCC4=CC(=O)CC[C@@H]4[C@H]3CC[C@@]21C [NORETHINDRONE ACETATE]	Not Active
O=c1ccc2ccccc2o1	Not Active
